B1: STK38L (parent)
chain: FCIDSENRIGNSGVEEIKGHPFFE

Variants of: B1
Test: protein stability index of a GFP-peptide fusion (GPS, HEK-293T) (PSI 1-6); higher = more stable;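 note: lentivirally expressed fusions sorted by FACS into six bins by GFP to DsRed ratio, PSI derived from sequencing read proportions per bin multiplied by bin number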
Conditions: c terminus: a fixed tail appended
Here, each record is paired with measured protein stability index data.
# answer = number (no unit)

FCRDSENRIGNSGVEEIKGHPFFE 2.49
FCIDSENRIGNSGAEEIKGHPFFE 3.13
FCIDSENRIGNSGVELIKGHPFFE 1.79
MCIDSENRIGNSGVEEIKGHPFFE 4.78
FCIDSENRIGNSGVDEIKGHPFFE 1.62

Query: Given the variant FCIDSENRIGNSGVEEIMGHPFFE , what is its reported protein stability index?
Result: 1.65

Query: Item: FCIDSENRWGNSGVEEIKGHPFFE
Result: 1.58

Query: Item: FCIDSENRIGNSGVEEIWGHPFFE
Result: 2.47

Query: Item: FCIDSENRIGNSGVEEPKGHPFFE
Result: 2.54

Query: Item: FCIDSENRIGNSPVEEIKGHPFFE
Result: 2.68
